Values compiled from patent US20240376113A1.

- Measured Target: ENPP1 on MDA-MB-231 cells (Homo sapiens (Human))
- Method Summary: Inhibition of ENPP1 hydrolysis of AMP p-nitrophenyl ester on MDA-MB-231 cells (Assay 2)
- Format: cell-based
- Conditions Used: pNP-AMP 0.25 mM, MDA-MB-231 cells, 37° C. 3 h, KI,app from IC50 via Cheng/Prusoff; read-out: Assay 2 KI, app

{"Molecule": "CN(C)c1c(Cc2ccc([S@@](C)(=N)=O)cc2)c(Cl)nc2ncnn12 [Compound 74a]", "Measured Target": "ENPP1 on MDA-MB-231 cells (Homo sapiens (Human))", "Ki, nM": 1.34}
{"Molecule": "Cc1nc2ncnn2c(N2CCCC2)c1Cc1ccc(S(C)(=N)=O)cc1 (stereo not drawn)", "Measured Target": "ENPP1 on MDA-MB-231 cells (Homo sapiens (Human))", "Ki, nM": 7.79}
{"Molecule": "CCN(C)c1c(Cc2ccc(S(C)(=N)=O)cc2)c(C)nc2ncnn12 (stereo not drawn)", "Measured Target": "ENPP1 on MDA-MB-231 cells (Homo sapiens (Human))", "Ki, nM": 48.9}
{"Molecule": "Cc1c(Cc2ccc(S(C)(=N)=O)cc2)c(N(C)C)nc2ncnn12 (stereo not drawn)", "Measured Target": "ENPP1 on MDA-MB-231 cells (Homo sapiens (Human))", "Ki, nM": 8.29}
{"Molecule": "Cc1nc2ncnn2c(N2CCCC2)c1Cc1ccc(C(=O)NO)cc1", "Measured Target": "ENPP1 on MDA-MB-231 cells (Homo sapiens (Human))", "Ki, nM": 69.9}
{"Molecule": "CS(=N)(=O)c1ccc(Cc2c(Cl)nc3ncnn3c2N2CCCC2)cc1 (stereo not drawn)", "Measured Target": "ENPP1 on MDA-MB-231 cells (Homo sapiens (Human))", "Ki, nM": 24.1}
{"Molecule": "Cc1nc2ncnn2c(N(C)C)c1Cc1ccc([S@@](C)(=N)=O)cc1 (single isomer, unassigned) [Compound 1b]", "Measured Target": "ENPP1 on MDA-MB-231 cells (Homo sapiens (Human))", "Ki, nM": 1.67}
{"Molecule": "Cc1nc2ncnn2c(N(C)C)c1Cc1ccc(P(=O)(O)O)cc1", "Measured Target": "ENPP1 on MDA-MB-231 cells (Homo sapiens (Human))", "Ki, nM": 7.94}
{"Molecule": "CCc1nc2ncnn2c(N2CCCC2)c1Cc1ccc(S(C)(=N)=O)cc1 (stereo not drawn)", "Measured Target": "ENPP1 on MDA-MB-231 cells (Homo sapiens (Human))", "Ki, nM": 15.7}

---

- Measured Target: ENPP1 on MDA-MB-231 cells (Homo sapiens (Human), UniProt P22413)
- Sequence (P22413 whole entry): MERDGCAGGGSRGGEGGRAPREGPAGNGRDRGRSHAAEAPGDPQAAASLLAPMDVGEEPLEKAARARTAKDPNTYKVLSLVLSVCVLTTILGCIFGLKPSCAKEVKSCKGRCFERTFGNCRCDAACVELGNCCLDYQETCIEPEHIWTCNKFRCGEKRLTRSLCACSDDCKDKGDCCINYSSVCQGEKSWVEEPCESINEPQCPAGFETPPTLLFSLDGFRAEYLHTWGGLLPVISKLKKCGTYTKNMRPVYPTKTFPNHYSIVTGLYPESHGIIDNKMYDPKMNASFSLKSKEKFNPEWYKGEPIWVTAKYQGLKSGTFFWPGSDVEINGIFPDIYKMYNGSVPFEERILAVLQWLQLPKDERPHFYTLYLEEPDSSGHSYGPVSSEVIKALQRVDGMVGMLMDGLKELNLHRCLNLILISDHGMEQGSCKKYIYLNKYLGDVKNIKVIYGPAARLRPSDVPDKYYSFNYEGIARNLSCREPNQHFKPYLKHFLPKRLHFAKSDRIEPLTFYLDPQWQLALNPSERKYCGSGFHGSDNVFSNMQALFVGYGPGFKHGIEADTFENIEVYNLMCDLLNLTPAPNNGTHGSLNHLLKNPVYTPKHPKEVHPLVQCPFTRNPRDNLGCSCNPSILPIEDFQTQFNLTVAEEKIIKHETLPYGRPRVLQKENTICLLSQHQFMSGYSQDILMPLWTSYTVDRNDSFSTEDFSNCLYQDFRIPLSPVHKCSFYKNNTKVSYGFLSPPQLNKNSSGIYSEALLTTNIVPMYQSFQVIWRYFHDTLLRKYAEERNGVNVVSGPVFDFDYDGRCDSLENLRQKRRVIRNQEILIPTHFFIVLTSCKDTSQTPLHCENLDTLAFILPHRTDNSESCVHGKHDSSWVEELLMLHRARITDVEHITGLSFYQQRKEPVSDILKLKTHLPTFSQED
- Method Summary: Inhibition of ENPP1 hydrolysis of AMP p-nitrophenyl ester on MDA-MB-231 cells (Assay 2)
- Type: cell-based
- Conditions Used: pNP-AMP 0.25 mM, MDA-MB-231 cells, 37° C. 3 h, KI,app from IC50 via Cheng/Prusoff; read-out: Assay 2 KI, app

{"Molecule": "Cc1c(Cc2ccc(S(C)(=N)=O)cc2)c(N(C)C)n2ccnc2c1C#N (stereo not shown)", "Ki": "2.54 nM"}
{"Molecule": "[2H]C([2H])([2H])N(c1c(Cc2ccc(S(C)(=N)=O)cc2)c(C)nc2ncnn12)C([2H])([2H])[2H] (stereo not shown)", "Ki": "4.7 nM"}
{"Molecule": "Cc1nc2nccn2c(N(C)C)c1Cc1ccc(S(C)(=N)=O)cc1 (stereo not shown)", "Ki": "12.2 nM"}
{"Molecule": "Cc1nc2ncnn2c(N2CCC2)c1Cc1ccc(S(C)(=N)=O)cc1 (stereo not shown)", "Ki": "224 nM"}

---

Here, each record is paired with measured pKi data.
- Measured Target: ENPP1 on MDA-MB-231 cells (Homo sapiens (Human))
- Method Summary: Inhibition of ENPP1 hydrolysis of AMP p-nitrophenyl ester on MDA-MB-231 cells (Assay 2)
- Assay type: cell-based
- Conditions Used: pNP-AMP 0.25 mM, MDA-MB-231 cells, 37° C. 3 h, KI,app from IC50 via Cheng/Prusoff; read-out: Assay 2 KI,app values (class)
pKi: −log10 of the molar value.

{"Compound": "CN(C)c1c(Cc2ccc(S(C)(=N)=O)cc2)c(C2CC2)nc2ncnn12 (centres unmarked)", "pKi": "> 8.00"}
{"Compound": "Cc1nc2ncnn2c(N2CCCC2)c1Cc1ccc([S@](C)(=N)=O)cc1 (single isomer, unassigned)", "pKi": "> 8.00"}
{"Compound": "Cc1nc2ncnn2c(N(C)C)c1Cc1ccc(S(=N)(=O)CCC(=O)O)cc1 (centres unmarked)", "pKi": "> 8.00"}
{"Compound": "Cc1nc2nccn2c(N(C)C)c1Cc1ccc([S@](C)(=N)=O)cc1 [Compound 29a]", "pKi": "> 8.00"}
{"Compound": "CS(=N)(=O)c1ccc(Cc2cnc3ncnn3c2N2CCCC2)cc1 (centres unmarked)", "pKi": "< 8.00"}
{"Compound": "Cc1nc2ncnn2c(N(C)C)c1Cc1ccc(S(C)(=N)=O)cc1 (centres unmarked)", "pKi": "> 8.00"}
{"Compound": "CCN(C)c1c(Cc2ccc(S(C)(=N)=O)cc2)c(C)nc2ncnn12 (centres unmarked)", "pKi": "< 8.00"}
{"Compound": "Cc1nc2ncnn2c(N2CCCC2)c1Cc1ccc(P(=O)(O)O)cc1", "pKi": "> 8.00"}
{"Compound": "CC(=O)NCCS(=N)(=O)c1ccc(Cc2c(C)nc3ncnn3c2N(C)C)cc1 (centres unmarked)", "pKi": "> 8.00"}
{"Compound": "Cc1nc2ncnn2c(N(C)C)c1Cc1ccc([S@@](C)(=N)=O)cc1 (single isomer, unassigned) [Compound 49a]", "pKi": "> 8.00"}
{"Compound": "Cc1cc2ncnn2c(N2CCCC2)c1Cc1ccc(S(C)(=N)=O)cc1 (centres unmarked)", "pKi": "< 8.00"}
{"Compound": "Cc1nc2ncnn2c(N2CCC2)c1Cc1ccc(S(C)(=N)=O)cc1 (centres unmarked)", "pKi": "< 8.00"}
{"Compound": "Cc1nc2ncnn2c(N(C)C)c1Cc1ccc([S@@](C)(=N)=O)cc1 (single isomer, unassigned) [Compound 1b]", "pKi": "> 8.00"}
{"Compound": "Cc1cc2ncnn2c(N2CCCCC2)c1Cc1ccc(S(C)(=N)=O)cc1 (centres unmarked)", "pKi": "< 8.00"}
{"Compound": "Cc1nc2ncnn2c(N2CCCC2)c1Cc1ccc(S(C)(=N)=O)cc1 (centres unmarked)", "pKi": "> 8.00"}
{"Compound": "Cc1nc2ncnn2c(N2CCCC2)c1Cc1ccc(S(N)(=O)=O)cc1", "pKi": "< 8.00"}
{"Compound": "Cc1nc2ncnn2c(N2CCCC2)c1Cc1ccc(B(O)O)cc1", "pKi": "< 8.00"}

---

- Measured Target: ENPP-1 ECD (Homo sapiens (Human))
- Sequence (P22413 98-925): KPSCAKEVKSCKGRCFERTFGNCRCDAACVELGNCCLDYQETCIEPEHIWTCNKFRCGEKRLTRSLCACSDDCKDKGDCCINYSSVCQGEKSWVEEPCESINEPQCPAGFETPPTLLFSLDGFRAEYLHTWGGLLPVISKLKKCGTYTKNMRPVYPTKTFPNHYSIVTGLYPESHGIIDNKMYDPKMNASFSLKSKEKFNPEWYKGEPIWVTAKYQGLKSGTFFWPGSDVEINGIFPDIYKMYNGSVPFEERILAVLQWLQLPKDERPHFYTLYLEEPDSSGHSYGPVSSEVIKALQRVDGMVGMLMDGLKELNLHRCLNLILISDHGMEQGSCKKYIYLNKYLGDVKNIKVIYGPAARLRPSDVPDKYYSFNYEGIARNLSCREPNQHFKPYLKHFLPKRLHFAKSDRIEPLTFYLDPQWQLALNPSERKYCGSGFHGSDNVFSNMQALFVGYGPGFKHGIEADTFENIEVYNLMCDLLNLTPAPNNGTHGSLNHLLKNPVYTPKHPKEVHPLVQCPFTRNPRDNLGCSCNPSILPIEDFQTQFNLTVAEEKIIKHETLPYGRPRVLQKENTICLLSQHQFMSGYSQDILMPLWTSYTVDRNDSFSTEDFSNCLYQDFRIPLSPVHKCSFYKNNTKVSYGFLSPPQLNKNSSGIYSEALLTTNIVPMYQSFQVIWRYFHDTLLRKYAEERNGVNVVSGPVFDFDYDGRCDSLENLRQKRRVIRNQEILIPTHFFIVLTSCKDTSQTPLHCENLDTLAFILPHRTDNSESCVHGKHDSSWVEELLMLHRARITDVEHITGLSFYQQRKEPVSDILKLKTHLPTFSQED
- Method Summary: Inhibition of ENPP1 hydrolysis of 2′,3′-cGAMP (Assay 1)
- Conditions Used: Assay 1 KI values (class), 2,3-cGAMP 24 μM, AMP-Glo luminescence, KI from IC50 via Cheng/Prusoff
Result Type: Ki

{"Compound": "Cc1nc2ncnn2c(N2CC3CC2C3)c1Cc1ccc(S(C)(=N)=O)cc1 (stereo not shown) [Compound 45]", "Result Type": "Ki", "Observed": "3 to 300 nM"}
{"Compound": "Cc1nc2ncnn2c(N(C)C2CCC2)c1Cc1ccc(S(C)(=N)=O)cc1 (stereo not shown) [Compound 40]", "Result Type": "Ki", "Observed": "3 to 300 nM"}
{"Compound": "Cc1nc2ncnn2c(N2CCCC2)c1Cc1ccc(P(=O)(O)O)cc1 [Compound 36]", "Result Type": "Ki", "Observed": "< 3 nM"}
{"Compound": "Cc1nc2ncnn2c(N(C)C2CC2)c1Cc1ccc(S(C)(=N)=O)cc1 (stereo not shown) [Compound 39]", "Result Type": "Ki", "Observed": "3 to 300 nM"}
{"Compound": "Cc1nc2ncnn2c(N(C)C)c1Cc1cccc(S(C)(=N)=O)c1 (stereo not shown) [Compound 4]", "Result Type": "Ki", "Observed": "> 300 nM"}
{"Compound": "Cc1nc2ncnn2c(N2CCC(F)(F)CC2)c1Cc1ccc(S(C)(=N)=O)cc1 (stereo not shown) [Compound 43]", "Result Type": "Ki", "Observed": "3 to 300 nM"}
{"Compound": "Cc1cc2ncnn2c(N2CCCC2)c1Cc1ccc(S(C)(=N)=O)cc1 (stereo not shown) [Compound 75]", "Result Type": "Ki", "Observed": "< 3 nM"}
{"Compound": "Cc1nc2ncnn2c(N(C)C)c1Cc1ccc(P(=O)(O)O)cc1 [Compound 5]", "Result Type": "Ki", "Observed": "< 3 nM"}
{"Compound": "Cc1cc2ncnn2c(N(C)C)c1Cc1ccc(S(C)(=N)=O)cc1 (stereo not shown) [Compound 28]", "Result Type": "Ki", "Observed": "< 3 nM"}
{"Compound": "Cc1nc2ncnn2c(N2CCCC2)c1Cc1ccc(C(=O)NO)cc1 [Compound 82]", "Result Type": "Ki", "Observed": "< 3 nM"}
{"Compound": "Cc1nc2ncnn2cc1Cc1ccc(S(C)(=N)=O)cc1 (stereo not shown) [Compound 70]", "Result Type": "Ki", "Observed": "3 to 300 nM"}
{"Compound": "Cc1nc2ncnn2c(N2C3CCC2CC3)c1Cc1ccc(S(C)(=N)=O)cc1 (stereo not shown) [Compound 44]", "Result Type": "Ki", "Observed": "3 to 300 nM"}
{"Compound": "Cc1nc2ncnn2c(N(C)C)c1Cc1ccc(S(C)(=N)=O)cc1 (stereo not shown) [Compound 1]", "Result Type": "Ki", "Observed": "< 3 nM"}
{"Compound": "CCc1nc2ncnn2c(N2CCCC2)c1Cc1ccc(S(C)(=N)=O)cc1 (stereo not shown) [Compound 50]", "Result Type": "Ki", "Observed": "< 3 nM"}
{"Compound": "Cc1nc2ncnn2c(N2CCCC2)c1Cc1ccc(S(N)(=O)=O)cc1 [Compound 9]", "Result Type": "Ki", "Observed": "< 3 nM"}
{"Compound": "Cc1nc2ncnn2c(C)c1Cc1ccc(S(C)(=N)=O)cc1 (stereo not shown) [Compound 26]", "Result Type": "Ki", "Observed": "3 to 300 nM"}
